The reported numbers originate from patent US12478616B2.

Entries and their concentration at 5 min values follow.
- Experimental details: Mouse pharmacokinetics, cassette dosed free drug
- Format: in vivo
- Condition summary: in vivo, cassette, IV 0.1 mg/kg, 1 mL/kg (10-in-One), read-out: C5min
- From the text: Mouse PK data for Compound (14) (cassette dosing) for free drug (i.e., not nanoformulated) is tabulated in Table 2 using amorphous material. […] The corresponding rat PK data is tabulated in Table 3, where the results are consistent with mouse PK data.
// return numeric value only (unit: ng/mL, not printed)

Let me know recorded concentration at 5 min for Cc1nc(NC(=O)N2CCC[C@H]2C(N)=O)sc1-c1cc(C(C)(C)C(F)(F)F)oc(=O)c1 , thanks.
66.4

More entries:
State, in one line, measured concentration at 5 min of Cc1nc(NC(=O)N2CCC[C@H]2C(N)=O)sc1-c1ccnc(C(C)(C)C(F)(F)F)c1 [BYL719, alpelisib, reference compound]
56.4

----------
- Experimental details: Rat pharmacokinetics, cassette dosed free Compound (14)
- Type: in vivo
- Condition summary: in vivo, IV 0.1 mg/kg, 1 mL/kg (10-in-One), read-out: Cltotal (converted)
Assay endpoint: clearance (mL/min/kg)
Field: numeric (mL/min/kg). Do not append units.

Please report the measured clearance for Cc1nc(NC(=O)N2CCC[C@H]2C(N)=O)sc1-c1cc(C(C)(C)C(F)(F)F)oc(=O)c1
37

----------
- Experimental details: Mouse pharmacokinetics, cassette dosed free drug
- Format: in vivo
- Condition summary: in vivo, cassette, IV 0.1 mg/kg, 1 mL/kg (10-in-One), read-out: VDss
- Description: Mouse PK data for Compound (14) (cassette dosing) for free drug (i.e., not nanoformulated) is tabulated in Table 2 using amorphous material. […] The corresponding rat PK data is tabulated in Table 3, where the results are consistent with mouse PK data.
Each entry below lists one item and its recorded Vd value.

Give the measured Vd for Cc1nc(NC(=O)N2CCC[C@H]2C(N)=O)sc1-c1ccnc(C(C)(C)C(F)(F)F)c1 [BYL719, alpelisib, reference compound]
1.54 L/kg

Consider the additional molecule presented here.
Check the records and state Vd for Cc1nc(NC(=O)N2CCC[C@H]2C(N)=O)sc1-c1cc(C(C)(C)C(F)(F)F)oc(=O)c1
1.78 L/kg

----------
- Experimental details: Rat pharmacokinetics, cassette dosed free Compound (14)
- Format: in vivo
- Condition summary: in vivo, PO 1 mg/kg, 5 mL/kg (5-in-One), read-out: AUCpo
Assay endpoint: AUC (ng·h/mL)
# value in ng·h/mL; strip the unit string

Give AUC for Cc1nc(NC(=O)N2CCC[C@H]2C(N)=O)sc1-c1cc(C(C)(C)C(F)(F)F)oc(=O)c1 [Compound (14)]
26.9

----------
- Experimental details: Rat pharmacokinetics, cassette dosed free Compound (14)
- Format: in vivo
- Condition summary: in vivo, IV 0.1 mg/kg, 1 mL/kg (10-in-One), read-out: AUCiv
Assay endpoint: AUC
Be sure to follow the number with its unit.

Note AUC for the molecule shown: Cc1nc(NC(=O)N2CCC[C@H]2C(N)=O)sc1-c1cc(C(C)(C)C(F)(F)F)oc(=O)c1
45.1 ng·h/mL

----------
- Experimental details: Rat pharmacokinetics, cassette dosed free Compound (14)
- Type: in vivo
- Condition summary: in vivo, PO 1 mg/kg, 5 mL/kg (5-in-One)
Assay endpoint: Cmax (ng/mL)
Reply with just the number (in ng/mL).

Using known records, supply Cmax for Cc1nc(NC(=O)N2CCC[C@H]2C(N)=O)sc1-c1cc(C(C)(C)C(F)(F)F)oc(=O)c1 [Compound (14)]
11.8
